System: PC-3 prostate
Assay: NCI-60 one-dose screen, 48 h (100 = growth as untreated, 0 = no growth, -100 = all killed)
Details: 10 µM unless noted
Compounds without any hit were thinned out: in the full panel of roughly 83,000, 20% have a hit.
Decision: growth beneath 50% gives true (1); growth meeting or exceeding 50% gives false (0).

QUERY: growth strictly < 50% for this compound? Cc1cc(N2CCCCC2)nc(N2CCN(CC(=O)Nc3ccc4c(ccn4Cc4ccccc4)c3)CC2)n1
RESULT: true (1)

QUERY: # TODO verify growth < 50% strictly for this compound: O=C(Nc1ccc(F)cc1)Nc1ccccc1CNc1nc(Nc2ccc(OCCN3CCCC3)cc2)ncc1Cl
RESULT: false (0)

QUERY: Hi there! Is growth for CC1CN=C(c2cccc(-c3ccc(-c4ccccc4)o3)c2)N1 (centres undefined) below 50%, do you know?
RESULT: true (1)

QUERY: Quick check: growth of C=C1C(=O)O[C@H]2[C@H]1CC/C(COC(=O)NCCCCCCCCNC(=O)OC/C1=C/CC[C@@]3(C)O[C@H]3[C@H]3OC(=O)C(=C)[C@@H]3CC1)=C\CC[C@@]1(C)O[C@@H]21 under 50%?
RESULT: true (1)

QUERY: Threshold test, growth < 50%: CCOC(=O)CSc1nc2sc3c(c2c(=O)n1-c1ccc([N+](=O)[O-])cc1)CCCCC3
RESULT: false (0)

QUERY: Strictly below 50% in growth? COCC[C@H]1CCC/C=C/[C@@H]2C[C@H](O)C[C@H]2[C@H](O)/C=C/C(=O)O1
RESULT: true (1)

QUERY: Given O=C(c1ccc(F)c(Cl)c1)N1c2ccccc2Sc2ccccc21 , is recorded growth strictly lower than 50%?
RESULT: true (1)

QUERY: Please let me know if COc1cccc(Nc2ccnc3[nH]c4ccc([N+](=O)[O-])cc4c23)c1 shows growth below 50%.
RESULT: true (1)

QUERY: Quick check: does COc1cc2c(/C=C3\C(=O)Nc4ccccc43)c(C(=O)O)[nH]c2cc1C have growth under 50%?
RESULT: false (0)

QUERY: Decide: growth of COc1cc(/C=C2\CN(S(=O)(=O)c3ccc(C)cc3)C/C(=C\c3cc(CN4CCCCC4)c(O)c(OC)c3)C2=O)cc(CN2CCCCC2)c1O strictly below 50%?
RESULT: true (1)

QUERY: Threshold test, growth < 50%: COC(=O)C1=Nc2ccc(F)cc2/C1=C\c1sc(Nc2ccc(O)cc2)nc1O
RESULT: false (0)

QUERY: Please state whether growth is below 50% for COc1ccc2nc(SCC(=O)Nc3ccccc3C)[nH]c2c1
RESULT: false (0)

QUERY: Below 50% on growth? Entry CN1CCCc2cc(/C=C3/SC(=S)N(CCc4ccc(O)cc4)C3=O)ccc21
RESULT: false (0)

QUERY: Field: below-cutoff. Rule: recorded growth strictly less than 50%. Subject: CCOC(=O)C(=Cc1cccc(C#N)c1)C(=O)OCC
RESULT: false (0)

QUERY: Is it true that growth reported for COC(=O)c1nc(-c2ccccc2)oc1S(=O)(=O)N1CCC(C(N)=O)CC1 is less than 50%?
RESULT: false (0)

QUERY: In the record for COc1cc(C(=O)/C=C/c2ccc(N3CCN(C)CC3)cc2)cc(OC)c1OC , is growth less than 50%?
RESULT: false (0)

QUERY: Below 50% on growth? Entry CCn1c2ccc(O)cc2c2c(C)c3c[n+](C(C)C)ccc3c(C)c21
RESULT: false (0)

QUERY: Is the reported growth for COc1ccc2nc3cc(Cl)ccc3c(NCCN)c2c1 strictly below 50%?
RESULT: true (1)

QUERY: Determine if COc1ccc(Cc2cnc(NC(=O)c3sc4ccccc4c3Cl)s2)cc1 shows growth strictly lower than 50%.
RESULT: true (1)

Origin of values: PubChem BioAssay (NCI)
